ASSAY_METHOD_TEXT: Sachet size, thickness, release rate and lure longevity studies (Table 3, based on GC-MS analysis)
Type: physicochemical
CONDITION_SET: LDPE sachet per Table 3; based on GC-MS analysis
compounds and their reported Est. long.
Output spec: scalar in days, unitless text.

Look over these answered cases.
{"COMPOUND": "CC=O", "PROPERTY_LABEL": "Est. long.", "U": "days", "ENDPOINT_RESULT": 40}
{"COMPOUND": "CCOC(C)=O [ethyl acetate]", "PROPERTY_LABEL": "Est. long.", "U": "days", "ENDPOINT_RESULT": 15}

We now examine a further compound.
(Q) Est. long. lookup needed for CC(C)CCO , thanks.
(A) 300

---

ASSAY_METHOD_TEXT: Sachet size, thickness, release rate and lure longevity studies (Table 3, based on GC-MS analysis)
Type: physicochemical
CONDITION_SET: LDPE sachet per Table 3; based on GC-MS analysis
compounds and their reported Release rate
Express the reported value numerically, then name its unit.

Look over these answered cases.
{"COMPOUND": "CC(C)CCO", "Release rate": "3.4 mg/day"}
{"COMPOUND": "CC(C)CO", "Release rate": "4.9 mg/day"}
{"COMPOUND": "CCC(C)CO (stereo not drawn)", "Release rate": "4.3 mg/day"}
{"COMPOUND": "CC(=O)OCCc1ccccc1 [2-phenylethylacetate]", "Release rate": "28 mg/day"}
{"COMPOUND": "CCOC(C)=O [ethyl acetate]", "Release rate": "136 mg/day"}

(Q) Release rate lookup needed for CC=O , thanks.
(A) 50 mg/day

---

molecules and their reported Release rate (commercial solution)
ASSAY_METHOD_TEXT: Release of compounds from the commercial co-attractant solution
Type: physicochemical
CONDITION_SET: compound in commercial co-attractant solution

Look over these answered cases.
{"MOLECULE": "CCC(C)CO (centres unmarked) [2-methyl-butanol]", "Release rate (commercial solution)": "0.6 mg/day"}
{"MOLECULE": "CC=O [acetaldehyde]", "Release rate (commercial solution)": "43 mg/day"}
{"MOLECULE": "CC(C)CO [Isobutyl alcohol]", "Release rate (commercial solution)": "2.9 mg/day"}
{"MOLECULE": "CCOC(C)=O [ethyl acetate]", "Release rate (commercial solution)": "110 mg/day"}

(Q) Release rate (commercial solution) lookup needed for CC(C)CCO [Isopentyl alcohol] , thanks.
(A) 3.3 mg/day

---

compounds and their reported Est. long.
ASSAY_METHOD_TEXT: Gravimetric release rate and longevity of lure constituents in LDPE sachets
Format: physicochemical
CONDITION_SET: compound on wick in LDPE sachet; thickness, size, load per Table 1

Look over these answered cases.
{"COMPOUND": "CC(C)CO", "Est. long.": "200+ days"}
{"COMPOUND": "CCC(C)CO (centres unmarked)", "Est. long.": "200+ days"}
{"COMPOUND": "CC(C)CCO", "Est. long.": "300 days"}
{"COMPOUND": "CCOC(C)=O [ethyl acetate]", "Est. long.": "15 days"}

(Q) Est. long. lookup needed for CC=O , thanks.
(A) 7 days

---

ASSAY_METHOD_TEXT: Sachet size, thickness, release rate and lure longevity studies (Table 3, based on GC-MS analysis)
Format: physicochemical
CONDITION_SET: LDPE sachet per Table 3; based on GC-MS analysis
molecules and their reported Est. long.

Look over these answered cases.
{"MOLECULE": "CCC(C)CO (stereo not drawn)", "Est. long.": "200+ days"}
{"MOLECULE": "CC(=O)OCCc1ccccc1 [2-phenylethylacetate]", "Est. long.": "70+ days"}

(Q) Est. long. lookup needed for CC(C)CO , thanks.
(A) 200+ days
